target: rMoPrP aggregates (Mus musculus); assay: biochemical; type: binding
Sequence (P04925 23-231 limits assumed): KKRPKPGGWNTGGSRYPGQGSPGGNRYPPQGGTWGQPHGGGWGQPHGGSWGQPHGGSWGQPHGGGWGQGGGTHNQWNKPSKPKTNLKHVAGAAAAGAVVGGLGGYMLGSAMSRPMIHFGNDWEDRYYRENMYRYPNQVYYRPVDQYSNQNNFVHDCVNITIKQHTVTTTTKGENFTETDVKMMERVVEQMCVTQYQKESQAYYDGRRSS
Form field: Bmax (one value per entry).
Give a bare numeral; the unit pmol/nmol protein is implied.

>>> df
                                   molecule  reported_result
0  CN(C)c1ccc(/C=C/C(=O)c2ccc([125I])cc2)cc1 [[^125I]CL-NMe2]             16.7
1  CN(C)c1ccc(/C=C2\Oc3ccc([125I])cc3C2=O)cc1 [[^125I]AR-NMe2]             34.9
2  CN(C)c1ccc(/C=C/c2cc(=O)c3cc(I)ccc3o2)cc1 [SC-NMe2]             36.3

Proceeding to the next molecule to report its Bmax.
In: For CN(C)c1ccc(-c2cc(=O)c3cc([125I])ccc3o2)cc1 [[^125I]FL-NMe2] , what is its reported Bmax?
Out: 11.2

###

target: rMoPrP aggregates (Mus musculus); test: biochemical
Form field: pKi (one value per entry).
// pKi is dimensionless: -log10 of concentration (M)

Example entries and their recorded answers appear below.
>>> print(df.to_string())
                                   compound  reported_result
0  Nc1ccc(/C=C/c2cc(=O)c3cc(I)ccc3o2)cc1 [SC-NH2, (E)-6-Iodo-2-(4-aminostyryl)-chromone]             7.23
1  CNc1ccc(/C=C/c2cc(=O)c3cc(I)ccc3o2)cc1 [SC-NHMe]             7.77
2  O=c1cc(/C=C/c2ccc(O)cc2)oc2ccc(I)cc12 [SC-OH, (E)-6-Iodo-2-(4-hydroxylstyryl)-chromone]             7.46
3  COc1ccc(/C=C/c2cc(=O)c3cc(I)ccc3o2)cc1OC [SC-(OMe)2]             7.58
4  O=c1cc(/C=C/c2ccc(OCCO)cc2)oc2ccc(I)cc12 [SC-OEtOH]             6.66

Proceeding to the next compound to report its pKi.
In: For COc1ccc(/C=C/c2cc(=O)c3cc(I)ccc3o2)cc1 [SC-OMe, (E)-6-Iodo-2-(4-methoxystyryl) chromone] , what is its reported pKi?
Out: 7.68
